Molecular target: UniProtKB Q9S5X0
Sequence (Q9S5X0 whole entry): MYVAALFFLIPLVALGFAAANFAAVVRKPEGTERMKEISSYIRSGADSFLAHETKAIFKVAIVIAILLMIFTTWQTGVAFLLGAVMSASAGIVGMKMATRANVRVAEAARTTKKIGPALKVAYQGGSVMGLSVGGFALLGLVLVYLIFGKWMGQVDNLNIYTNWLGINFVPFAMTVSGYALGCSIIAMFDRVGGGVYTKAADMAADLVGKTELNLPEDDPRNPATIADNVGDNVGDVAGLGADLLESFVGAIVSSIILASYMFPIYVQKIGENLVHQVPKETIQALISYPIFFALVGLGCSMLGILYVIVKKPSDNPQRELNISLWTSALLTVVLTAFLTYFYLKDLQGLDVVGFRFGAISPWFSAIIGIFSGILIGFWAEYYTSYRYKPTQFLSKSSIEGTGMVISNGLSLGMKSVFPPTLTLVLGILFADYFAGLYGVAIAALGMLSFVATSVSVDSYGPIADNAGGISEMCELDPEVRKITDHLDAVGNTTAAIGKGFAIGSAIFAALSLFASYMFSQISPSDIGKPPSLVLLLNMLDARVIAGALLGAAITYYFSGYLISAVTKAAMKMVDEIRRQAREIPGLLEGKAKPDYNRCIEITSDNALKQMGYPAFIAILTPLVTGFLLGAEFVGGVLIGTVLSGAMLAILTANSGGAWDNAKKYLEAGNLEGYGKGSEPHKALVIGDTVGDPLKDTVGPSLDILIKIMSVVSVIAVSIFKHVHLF
Assay: TmPPase inhibition assay (96-well plate, orthophosphate determination)
Type: biochemical
Details: purified TmPPase; 95% confidence interval in square brackets
Procedure: The inhibition assay was measured in 96 well plate assay as previously reported.5,6 Briefly, 1 µL of purified TmPPase (13 mg/mL) was reactivated in 99 µL of reactivation buffer (20 mM 2-(N-morpholino) ethanesulfonic acid (MES) pH 6.5, 3.5% (v/v) glycerol, 2 mM dithiothreitol (DTT), 4.5% dodecyl maltoside (DDM) and 12 mg/mL L-α-phosphatidylcholine from soybean) and incubated at 55 °C for 15 min. […]
ASSAY METRIC: IC50 [CI95%]

Sample answers from the record:
Nc1ccc(S(=O)(=O)NC2=NCCS2)cc1: Inactive
CCOC(=O)c1cc(-c2ccc(OC)c(S(=O)(=O)N3CCc4ccccc43)c2)on1: Inactive
CC(C)(C)c1cc(C(=O)Nc2ccccc2C(=O)O)cc(C(C)(C)C)c1: Inactive
O=C(O)c1ccc2c(c1)B(O)OC2: Inactive
O=C1CS(=O)(=O)c2ccccc21: Inactive

Record summary for `O=C(O)c1csc(-c2ccc(C(F)(F)F)cc2)n1` : reported IC50 [CI95%] = Inactive

Record summary for CCOC(=O)c1cc(-c2ccccc2)on1 [Compound 10a] : reported IC50 [CI95%] = Inactive

Record summary for `Nc1ccc(CO)c(B(O)O)c1` : reported IC50 [CI95%] = Inactive

Record summary for CCOC(=O)c1cc(-c2cccc(C)c2)on1 [Compound 10i] : reported IC50 [CI95%] = Inactive

Record summary for `CCOC(=O)c1cc(-c2ccc(OC)c(S(=O)(=O)Nc3ncccc3C)c2)on1` : reported IC50 [CI95%] = Inactive

Record summary for `O=C(O)CS(=O)(=O)c1ccccc1[N+](=O)[O-]` : reported IC50 [CI95%] = Inactive
